This collection of values is drawn from paper PMC12126525.

# MEASUREMENT TARGET: BiP NBD (Homo sapiens)
# ASSAY TEXT: Global kinetic fit (MCMC) of four NMR data sets (E1+E2, E1 only, E2 only, no recycling): functional cycle kinetic parameters
# Format: biochemical
# Set-up: His6 (N, cleaved yes); made in house; host or cells: E. coli BL21-(DE3)-Lemo, pET28a vector
# CONDITION LABEL: Supplementary Fig 10b, time 52 min
# species listing for each entry below
Answer with the value and then the unit.

Answered cases to consult:
CC(=O)C(=O)O [Pyruvate] :: 4544 µM
C=C(OP(=O)(O)O)C(=O)O :: 5256 µM
O=P(O)(O)O :: 4544 µM

We next turn to a different compound, shown below.
// species lookup, compound = "Nc1ncnc2c1ncn2[C@@H]1O[C@H](COP(=O)(O)OP(=O)(O)OP(=O)(O)O)[C@@H](O)[C@H]1O" , result: 4916 µM

* * *

# MEASUREMENT TARGET: BiP NBD (Homo sapiens, UniProt P11021)
# Sequence (P11021 19-406): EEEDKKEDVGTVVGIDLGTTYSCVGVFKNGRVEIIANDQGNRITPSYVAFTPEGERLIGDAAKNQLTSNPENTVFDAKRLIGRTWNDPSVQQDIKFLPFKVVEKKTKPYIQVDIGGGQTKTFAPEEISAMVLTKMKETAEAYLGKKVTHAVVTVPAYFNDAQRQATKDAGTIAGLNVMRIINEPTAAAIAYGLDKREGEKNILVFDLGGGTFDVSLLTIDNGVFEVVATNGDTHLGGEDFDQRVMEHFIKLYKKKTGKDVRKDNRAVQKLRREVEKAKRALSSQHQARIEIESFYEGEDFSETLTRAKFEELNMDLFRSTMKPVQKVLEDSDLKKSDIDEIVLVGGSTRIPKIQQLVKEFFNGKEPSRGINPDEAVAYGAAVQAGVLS
# ASSAY TEXT: Global kinetic fit (MCMC) of four NMR data sets (E1+E2, E1 only, E2 only, no recycling): functional cycle kinetic parameters
# Type: biochemical
# Parameters: His6 (N, cleaved yes); made in house; host or cells: E. coli BL21-(DE3)-Lemo, pET28a vector
# CONDITION LABEL: Supplementary Fig 10b, time 16 min
MEASUREMENT KIND: species (µM)
Entry rule: numbers only, all in µM.

O=P(O)(O)O :: 1602
CC(=O)C(=O)O [Pyruvate] :: 1602
C=C(OP(=O)(O)O)C(=O)O :: 8398

We next turn to a different compound, shown below.
// species lookup, compound = "Nc1ncnc2c1ncn2[C@@H]1O[C@H](COP(=O)(O)OP(=O)(O)OP(=O)(O)O)[C@@H](O)[C@H]1O" , result: 4951

* * *

# MEASUREMENT TARGET: BiP NBD (Homo sapiens)
# ASSAY TEXT: NMR experiment with MABA-ATP (no E1, no E2) and kinetic fit of the MABA-ATP/MABA-ADP functional cycle
# Format: biochemical
# Set-up: His6 (N, cleaved yes); made in house; host or cells: E. coli BL21-(DE3)-Lemo, pET28a vector
# CONDITION LABEL: MABA-ATP instead of ATP; reactions 4MABA, 5MABA: release from NBD·MABA-ADP·Pi; T = 37°C
MEASUREMENT KIND: pKd
Lab note: report pKd as minus log10 of the concentration in molar units, number only.

// pKd lookup, molecule = O=P(O)(O)O [Pi] , result: 3.44

* * *

# MEASUREMENT TARGET: BiP NBD (Homo sapiens, UniProt P11021)
# ASSAY TEXT: Global kinetic fit (MCMC) of four NMR data sets (E1+E2, E1 only, E2 only, no recycling): functional cycle kinetic parameters
# Assay type: biochemical
# Set-up: His6 (N, cleaved yes); made in house; host or cells: E. coli BL21-(DE3)-Lemo, pET28a vector
# CONDITION LABEL: Supplementary Fig 10a, time 29 min
# species listing for each entry below
Entry rule: numbers only, all in µM.

Answered cases to consult:
O=P(O)(O)O :: 25
O=P(O)(O)O[C@H]1O[C@H](CO)[C@@H](O)[C@H](O)[C@H]1O :: 4805
CC(=O)C(=O)O [Pyruvate] :: 4950
Nc1ncnc2c1ncn2[C@@H]1O[C@H](COP(=O)(O)OP(=O)(O)OP(=O)(O)O)[C@@H](O)[C@H]1O :: 4939

We next turn to a different compound, shown below.
// species lookup, compound = "C=C(OP(=O)(O)O)C(=O)O" , result: 20195

* * *

# Kd listing for each entry below
# MEASUREMENT TARGET: BiP NBD (Homo sapiens, UniProt P11021)
# ASSAY TEXT: NMR experiment with MABA-ATP (no E1, no E2) and kinetic fit of the MABA-ATP/MABA-ADP functional cycle
# Assay type: biochemical
# Set-up: His6 (N, cleaved yes); made in house; host or cells: E. coli BL21-(DE3)-Lemo, pET28a vector
# CONDITION LABEL: MABA-ATP instead of ATP; reactions 1MABA, 2MABA, 3: release to apo NBD; T = 37°C

O=P(O)(O)O :: 280 µM

// Kd lookup, compound = CNc1ccccc1C(=O)NCCCCNc1nc2c(N)ncnc2n1[C@@H]1O[C@H](COP(=O)(O)OP(=O)(O)OP(=O)(O)O)[C@@H](O)[C@H]1O [MABA-ATP, 8-[(4-Amino)butyl]-amino-ATP-MAN] , result: 0.95 µM

* * *

# MEASUREMENT TARGET: BiP NBD (Homo sapiens)
# ASSAY TEXT: Global kinetic fit (MCMC) of four NMR data sets (E1+E2, E1 only, E2 only, no recycling): functional cycle kinetic parameters
# Assay type: biochemical
# Set-up: His6 (N, cleaved yes); made in house; host or cells: E. coli BL21-(DE3)-Lemo, pET28a vector
# CONDITION LABEL: Supplementary Fig 10b, time 28 min
# species listing for each entry below
Answer with the value and then the unit.

Answered cases to consult:
O=P(O)(O)O :: 2820 µM
Nc1ncnc2c1ncn2[C@@H]1O[C@H](COP(=O)(O)OP(=O)(O)OP(=O)(O)O)[C@@H](O)[C@H]1O :: 4949 µM
C=C(OP(=O)(O)O)C(=O)O :: 7180 µM

We next turn to a different compound, shown below.
// species lookup, compound = CC(=O)C(=O)O [Pyruvate] , result: 2820 µM

* * *

# MEASUREMENT TARGET: BiP NBD (Homo sapiens)
# ASSAY TEXT: Global kinetic fit (MCMC) of four NMR data sets (E1+E2, E1 only, E2 only, no recycling): functional cycle kinetic parameters
# Type: biochemical
# Design: His6 (N, cleaved yes); made in house; host or cells: E. coli BL21-(DE3)-Lemo, pET28a vector
# CONDITION LABEL: Supplementary Fig 10b, time 58 min
MEASUREMENT KIND: species (µM)
Entry rule: numbers only, all in µM.

Answered cases to consult:
C=C(OP(=O)(O)O)C(=O)O :: 4838
Nc1ncnc2c1ncn2[C@@H]1O[C@H](COP(=O)(O)OP(=O)(O)OP(=O)(O)O)[C@@H](O)[C@H]1O :: 4954
O=P(O)(O)O :: 4962

// species lookup, molecule = CC(=O)C(=O)O [Pyruvate] , result: 4962

* * *

# MEASUREMENT TARGET: BiP NBD (Homo sapiens, UniProt P11021)
# ASSAY TEXT: Global kinetic fit (MCMC) of four NMR data sets (E1+E2, E1 only, E2 only, no recycling): functional cycle kinetic parameters
# Format: biochemical
# Design: His6 (N, cleaved yes); made in house; host or cells: E. coli BL21-(DE3)-Lemo, pET28a vector
# CONDITION LABEL: Supplementary Fig 10a, time 65 min
# species listing for each entry below
Entry rule: numbers only, all in µM.

Answered cases to consult:
Nc1ncnc2c1ncn2[C@@H]1O[C@H](COP(=O)(O)OP(=O)(O)OP(=O)(O)O)[C@@H](O)[C@H]1O [ATP] :: 5048
C=C(OP(=O)(O)O)C(=O)O [PEP] :: 15275
O=P(O)(O)O[C@H]1O[C@H](CO)[C@@H](O)[C@H](O)[C@H]1O [glucose-1-p] :: 9725
CC(=O)C(=O)O [Pyruvate] :: 10281

Entry O=P(O)(O)O [Pi] , BiP NBD (Homo sapiens, UniProt P11021) data, species value: 25

* * *

# pKd listing for each entry below
# MEASUREMENT TARGET: BiP NBD (Homo sapiens, UniProt P11021)
# ASSAY TEXT: Global kinetic fit (MCMC) of four NMR data sets (E1+E2, E1 only, E2 only, no recycling): functional cycle kinetic parameters
# Type: biochemical
# Set-up: His6 (N, cleaved yes); made in house; host or cells: E. coli BL21-(DE3)-Lemo, pET28a vector
# CONDITION LABEL: reactions 1-3: ligand leaving the binary complex to give apo NBD; standard buffer, T = 37 °C
Lab note: report pKd as minus log10 of the concentration in molar units, number only.

O=P(O)(O)O :: 3.59

We next turn to a different molecule, shown below.
Entry "Nc1ncnc2c1ncn2[C@@H]1O[C@H](COP(=O)(O)OP(=O)(O)OP(=O)(O)O)[C@@H](O)[C@H]1O" , BiP NBD (Homo sapiens, UniProt P11021) data, pKd value: 6.42

* * *

# MEASUREMENT TARGET: BiP NBD (Homo sapiens, UniProt P11021)
# CONDITION LABEL: read-out: IC50 (ADP mean life as a function of calcium concentration); MABA-ADP release, no Pi, fixed 10 mM magnesium, calcium 0.001 to 10 mM
MEASUREMENT KIND: IC50 (µM)
Entry rule: numbers only, all in µM.

// IC50 lookup, compound = [Ca+2] [calcium] , result: 212
